biological target: Casein kinase I isoform gamma-1 (Homo sapiens); assay: ligand binding to human CK1 gamma-1 kinase – biophysical, DSF, SYPRO orange, recombinant protein (AID 513); conditions: recombinant CSNK1G1, DSF thermal shift, at 10 µM, protein 2 µM, active compounds read high
Please respond with reported Tm shift for every item in the list.

Query block: For `CCn1cnc2c(Nc3cccc(Cl)c3)nc(N[C@@H]3CCCC[C@@H]3N)nc21` , write its Tm shift.
Result block: 5.8 Celsius

Query block: Output measured Tm shift for this item: `Cc1cc(Nc2nc(-c3ccccc3)nc3ccccc23)n[nH]1`
Result block: 3.3 Celsius

Query block: Using known records, supply Tm shift for `O=c1[nH]c(O)c2c1c1c3ccccc3nc1n1cncc21`
Result block: 4.3 Celsius

Query block: Give me measured Tm shift, please, for this compound: `Nc1nc(Nc2ccc(F)cc2)sc1C(=O)c1ccccc1`
Result block: 4.1 Celsius

Query block: Consider the compound `Nc1nc(Nc2ccccc2)sc1C(=O)c1ccc(F)cc1` and give its recorded Tm shift.
Result block: 3.9 Celsius

Query block: Name the recorded Tm shift of the compound listed here: `O=c1c(O)c(-c2ccc(O)c(O)c2)oc2cc(O)cc(O)c12`
Result block: 3.2 Celsius

Query block: Look up Tm shift of `CC(C)n1cnc2c(Nc3cccc(Cl)c3)nc(NCCO)nc21` and report it.
Result block: 6.1 Celsius

Query block: Dear colleague, please send me the reported Tm shift for `O=Nc1c(-c2c(O)[nH]c3cc(Br)ccc23)[nH]c2ccccc12` when you can.
Result block: 3.5 Celsius

Query block: Report Tm shift for CSc1nc(-c2ccnc(NC(C)c3ccccc3)c2)c(-c2ccc(F)cc2)[nH]1 (configuration not stated)
Result block: 3.6 Celsius

Query block: Return value of Tm shift for input `COc1cc(/C=C/C(=O)CC(=O)/C=C/c2ccc(O)c(OC)c2)ccc1O` , no commentary.
Result block: 4.5 Celsius

Query block: Report Tm shift for `N#C/C(=C1\Nc2ccccc2S1)c1ccnc(NCCc2cccnc2)n1`
Result block: 3.7 Celsius

Query block: Give recorded Tm shift. `CCN(CC)CCNC(=O)c1c(C)[nH]c(/C=C2\C(=O)Nc3ccc(Cl)cc32)c1C`
Result block: 4.3 Celsius

Query block: Give a short answer stating reported Tm shift for `Nc1nc(Nc2cccc(Cl)c2)sc1C(=O)c1ccc(F)cc1` .
Result block: 5.3 Celsius

Query block: Please report the measured Tm shift for `NC1=N/C(=C2/CCNC(=O)c3[nH]c(Br)cc32)C(=O)N1`
Result block: 5.7 Celsius

Query block: Quickly give me recorded Tm shift for `Oc1ccc(Nc2nccn3c(-c4cn[nH]c4)cnc23)cc1`
Result block: 3.2 Celsius

Query block: State, in one line, measured Tm shift of `COc1ccc(Nc2nc(N)c(C(=O)c3ccc(OC)cc3)s2)cc1`
Result block: 5.6 Celsius

Query block: Output measured Tm shift for this item: `NC(=O)c1ccc(-c2nc(-c3ccc4c(c3)OCCO4)c(-c3ccccn3)[nH]2)cc1`
Result block: 6.1 Celsius

Query block: Give the reported Tm shift for this compound. `Nc1nc(Nc2ccccc2F)sc1C(=O)c1ccc(Br)cc1`
Result block: 3.9 Celsius

Query block: Look up and state reported Tm shift for `O=Nc1c(-c2c(O)[nH]c3ccc(S(O)(O)O)cc23)[nH]c2ccccc12`
Result block: 4 Celsius

Query block: Note down Tm shift recorded for `Clc1ccc(Nc2ncc(-c3cn[nH]c3)n3ccnc23)cc1`
Result block: 3.6 Celsius

Query block: Please report the measured Tm shift for `NC1=N/C(=C2\CCNC(=O)c3[nH]ccc32)C(=O)N1`
Result block: 3.6 Celsius

Query block: Determine its reported Tm shift: `COc1ccc(Nc2nc(N)c(C(=O)c3ccc(Cl)cc3)s2)cc1`
Result block: 4.1 Celsius
